We begin with a simple list: items and their reported IC50.
Target: BTK (Homo sapiens (Human))
Sequence (Q06187 whole entry, species assumed): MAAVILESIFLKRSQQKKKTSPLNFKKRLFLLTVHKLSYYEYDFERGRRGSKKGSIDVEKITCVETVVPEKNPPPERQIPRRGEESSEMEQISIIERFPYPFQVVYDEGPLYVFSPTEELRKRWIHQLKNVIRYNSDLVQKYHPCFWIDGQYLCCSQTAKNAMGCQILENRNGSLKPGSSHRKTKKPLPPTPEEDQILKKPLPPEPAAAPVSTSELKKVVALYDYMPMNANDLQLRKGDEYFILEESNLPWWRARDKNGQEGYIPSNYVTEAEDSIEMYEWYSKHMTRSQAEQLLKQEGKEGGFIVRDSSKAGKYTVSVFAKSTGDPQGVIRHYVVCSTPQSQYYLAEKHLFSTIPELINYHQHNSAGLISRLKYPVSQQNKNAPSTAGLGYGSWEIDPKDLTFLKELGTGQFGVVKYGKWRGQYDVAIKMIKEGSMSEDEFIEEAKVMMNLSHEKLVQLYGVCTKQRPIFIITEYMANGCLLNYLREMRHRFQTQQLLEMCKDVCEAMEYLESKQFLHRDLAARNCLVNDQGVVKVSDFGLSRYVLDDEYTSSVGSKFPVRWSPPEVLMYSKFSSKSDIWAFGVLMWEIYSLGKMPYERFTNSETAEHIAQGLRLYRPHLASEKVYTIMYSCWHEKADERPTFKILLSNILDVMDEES
Assay: Btk kinase assay (HTRF)
Assay type: biochemical
Settings: [ATP]=80 μM, BTK=3.4 nM; read-out: BTK Inhibition

For orientation, consider the following solved cases.
In [3]: df
Out[3]:
                           substance_smiles   endpoint_result
0  C=CC(=O)N1CCC[C@@H](n2nc(-c3ccc(Oc4ccccc4)cc3)c3c(N)cccc32)C1      10 to 100 nM
1  C=CC(=O)N1CC[C@@H](n2nc(-c3ccc(Oc4cccc(OC)c4F)cc3)c3c2CCN(C(C)=O)C3)C1  1000 to 10000 nM

Reported IC50 of C=CC(=O)N1CCC[C@@H](n2nc(-c3ccc(Oc4cccc(F)c4C)cc3)c3cnccc32)C1 : 10 to 100 nM

Reported IC50 of C=CC(=O)N1CC[C@@H](n2nc(-c3ccc(Oc4cccc(F)c4F)cc3)c3cnccc32)C1 : < 10 nM

Reported IC50 of C=CC(=O)N1CCC[C@@H](n2nc(-c3ccc(NC(=O)c4cccc(C(F)(F)F)c4)cc3)c3cnccc32)C1 : 10 to 100 nM

Reported IC50 of C=CC(=O)N1CCC[C@H](n2nc(-c3ccc(Oc4ccccc4)c(Cl)c3)c3cnccc32)C1 : 10 to 100 nM

Reported IC50 of C=CC(=O)N1CCC[C@@H](n2nc(-c3ccc(Oc4cccc(Cl)c4F)cc3)c3cnccc32)C1 : < 10 nM
